Biological target: LXRβ (Homo sapiens, UniProt P55055)
Construct: Co-transfection expression plasmids, comprising full-length LXRα (pCMX-h LXRα[…] or LXRβ (pCMX-hLXRβ)); expressed in transfected cells; host or cells: CV-1 African Green Monkey Kidney Cells
Sequence (P55055 whole entry): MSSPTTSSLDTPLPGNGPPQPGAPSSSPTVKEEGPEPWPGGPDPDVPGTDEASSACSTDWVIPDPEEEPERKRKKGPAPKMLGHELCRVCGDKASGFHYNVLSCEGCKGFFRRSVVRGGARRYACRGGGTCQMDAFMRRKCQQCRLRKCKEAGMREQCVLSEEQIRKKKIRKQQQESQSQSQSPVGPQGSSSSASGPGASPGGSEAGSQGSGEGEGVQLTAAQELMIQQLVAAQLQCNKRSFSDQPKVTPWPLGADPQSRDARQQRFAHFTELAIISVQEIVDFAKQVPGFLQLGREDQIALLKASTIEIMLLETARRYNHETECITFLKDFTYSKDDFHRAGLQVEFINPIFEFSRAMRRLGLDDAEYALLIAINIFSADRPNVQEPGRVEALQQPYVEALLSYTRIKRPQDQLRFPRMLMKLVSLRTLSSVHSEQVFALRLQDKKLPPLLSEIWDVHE
Sequence (P19793 whole entry partner): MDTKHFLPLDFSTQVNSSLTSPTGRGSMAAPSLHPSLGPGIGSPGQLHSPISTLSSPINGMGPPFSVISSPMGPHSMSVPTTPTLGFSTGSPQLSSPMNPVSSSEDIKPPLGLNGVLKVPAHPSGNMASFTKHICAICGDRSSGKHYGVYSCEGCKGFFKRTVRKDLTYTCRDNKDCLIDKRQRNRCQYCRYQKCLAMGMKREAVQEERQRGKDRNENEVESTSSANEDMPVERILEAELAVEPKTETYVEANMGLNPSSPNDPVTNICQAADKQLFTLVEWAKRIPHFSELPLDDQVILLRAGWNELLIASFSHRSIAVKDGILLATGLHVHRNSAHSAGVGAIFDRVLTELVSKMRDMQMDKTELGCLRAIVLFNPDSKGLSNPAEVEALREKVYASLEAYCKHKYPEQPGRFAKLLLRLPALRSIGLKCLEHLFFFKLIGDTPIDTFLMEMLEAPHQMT
Assay: Co-transfection assay (LXRE luciferase reporter), LXRβ
Format: cell-based
Conditions: LXRβ co-transfection; relative to high control 1-(2,4-difluorobenzyl)-2-oxo-6-(4-phenoxyphenyl)-4-(trifluoromethyl)-1,2-dihydropyridine-3-carbonitrile; read-out: % Efficacy
Reported Emax values for a set of compounds
recordedMetric: Emax (%)

{"columns": ["compound", "endpointResult"],
 "data": [
  ["Cc1cc(-c2cc(-c3cccc(S(C)(=O)=O)c3)ccc2-n2cc(C(F)(F)F)nc2C)n(-c2ccc(OC(F)(F)F)cc2)n1 [Example 291]", 69],
  ["Cc1ccc(Cc2cnnn2-c2cc(-c3cccc(S(C)(=O)=O)c3)ccc2-n2cc(C(F)(F)F)nc2C)cc1 [Example 126]", 93],
  ["Cc1nc(-c2cc(-c3cccc(S(C)(=O)=O)c3)ccc2-n2cc(Cl)nc2C)c(-c2ccc3c(c2)OC(F)(F)O3)o1 [Example 423]", 74],
  ["Cc1nc(C(F)(F)F)cn1-c1ccc(-c2cccc(S(C)(=O)=O)c2)cc1-n1nncc1-c1ccc(OC(F)(F)F)cc1Cl [Example 68]", 80],
  ["COCCc1nc(-c2cc(-c3cccc(S(C)(=O)=O)c3)ccc2-n2cc(C(F)(F)F)nc2C)c(-c2ccc(Cl)cc2Cl)o1 [Example 553]", 60],
  ["CCS(=O)(=O)c1cccc(-c2ccc(-n3cc(C(F)F)nc3C)c(-c3cnnn3Cc3ccc(Cl)cc3)c2)c1 [Example 247]", 99],
  ["Cc1nc(-c2cc(-c3cccc(S(C)(=O)=O)c3)ccc2-n2cc(C(F)(F)F)nc2C)c(-c2ccc(Cl)cc2F)o1 [Example 484]", 57],
  ["Cc1nc(C(F)(F)F)cn1-c1ccc(-c2cccc(C(C)(C)C(N)=O)c2)cc1-n1nncc1Cc1ccc(Cl)cc1 [Example 119]", 85],
  ["CNS(=O)(=O)c1cccc(-c2ccc(-n3cc(C(F)(F)F)nc3C)c(-c3ocnc3-c3ccc(OC(F)(F)F)cc3)c2)c1 [Example 357]", 98],
  ["Cc1nc(C(F)(F)F)cn1-c1c(Cl)cc(-c2cc(F)c(CO)c(S(C)(=O)=O)c2)cc1-n1nncc1-c1ccc(OC(F)(F)F)cc1 [Example 196]", 68],
  ["CCc1nc(-c2cc(-c3cccc(S(C)(=O)=O)c3)ccc2-n2cc(C(F)(F)F)nc2C)c(-c2ccc(OC(F)(F)F)cc2)o1 [Example 555]", 96],
  ["COCc1c(F)cc(-c2ccc(-n3cc(C(C)(F)F)nc3C)c(-n3nncc3-c3ccc(OC(F)(F)F)cc3)c2)cc1S(C)(=O)=O [Example 179]", 105],
  ["Cc1nc(C(F)(F)F)cn1-c1ccc(-c2ccc(CO)c(S(C)(=O)=O)c2)cc1-c1oc(CCO)nc1-c1ccc(OC(F)(F)F)cc1 [Example 613]", 62],
  ["Cc1nc(C(F)F)cn1-c1ccc(-c2cccc(S(C)(=O)=O)c2)cc1-n1nncc1-c1ccccc1 [Example 171]", 60],
  ["COc1ncc(-c2oc(C)nc2-c2cc(-c3cccc(S(C)(=O)=O)c3)ccc2-n2cc(Cl)nc2C)cc1F [Example 464]", 42],
  ["Cc1nc(C(F)F)cn1-c1ccc(-c2cc(Cl)c(CO)c(S(C)(=O)=O)c2)cc1-n1nncc1-c1ccc(OC(F)(F)F)cc1 [Example 158]", 88],
  ["COCc1c(F)cc(-c2cc(F)c(-n3cc(C(F)(F)F)nc3C)c(-n3nncc3-c3ccc(OC(F)(F)F)cc3)c2)cc1S(C)(=O)=O [Example 206]", 95],
  ["Cc1nc(C(F)(F)F)cn1-c1ccc(-c2cccc(S(C)(=O)=O)c2)cc1-c1nc(C2CC2)oc1-c1ccc2c(c1)OC(F)(F)O2 [Example 482]", 71],
  ["Cc1nc(C(F)F)cn1-c1ccc(-c2cccc(S(C)(=O)=O)c2)cc1-n1nncc1-c1ccc(Cl)cc1Cl [Example 163]", 61],
  ["Cc1nc(C(F)F)c(C)n1-c1ccc(-c2cc(F)c(CO)c(S(C)(=O)=O)c2)cc1-n1nncc1-c1ccc(OC(F)(F)F)cc1 [Example 233]", 92],
  ["Cc1nc(C(F)(F)F)cn1-c1ccc(-c2cc(F)c(CO)c(S(C)(=O)=O)c2)cc1-c1nc(C(C)C)oc1-c1ccc(OC(F)(F)F)cc1 [Example 560]", 75],
  ["Cc1nc(C(F)(F)F)cn1-c1ccc(-c2cccc(S(C)(=O)=O)c2)cc1-n1nncc1C(=O)c1ccc(Cl)cc1 [Example 10]", 62],
  ["Cc1ccc(-c2cnnn2-c2cc(-c3cc(Cl)c(CO)c(S(C)(=O)=O)c3)ccc2-n2cc(C(F)(F)F)nc2C)cc1 [Example 63]", 68],
  ["Cc1nc(C(F)(F)F)cn1-c1ccc(-c2cccc(S(C)(=O)=O)c2)cc1-c1nc(CCO)oc1-c1ccc2c(c1)OC(F)(F)O2 [Example 531]", 74],
  ["CS(=O)(=O)c1cc(-c2cc(F)c(-n3cnc(C(F)(F)F)c3)c(-n3nncc3-c3ccc(OC(F)(F)F)cc3)c2)cc(F)c1CO [Example 189]", 95],
  ["Cc1nc(Cl)c(Cl)n1-c1ccc(-c2cccc(S(C)(=O)=O)c2)cc1-n1nncc1-c1ccc(OC(F)(F)F)cc1 [Example 151]", 148]
]}

###

Biological target: LXRβ (Homo sapiens)
Construct: Co-transfection expression plasmids, comprising full-length LXRα (pCMX-h LXRα[…] or LXRβ (pCMX-hLXRβ))
Test: Co-transfection assay (LXRE luciferase reporter), LXRβ
Settings: CV-1 cells transfected with pCMX-hLXRβ and LXREx1-Tk-Luciferase; 20 hours incubation
pEC50: −log10 of the molar value.
Quick reference: pEC50 of the listed items.

{"columns": ["compound", "pEC50"],
 "data": [
  ["Cc1nc(-c2cc(-c3cccc(C4(C(N)=O)CC4)c3)ccc2-n2cc(C(F)(F)F)nc2C)c(-c2ccc(OC(F)F)c(F)c2)o1 [Example 438]", 5.86],
  ["Cc1nc(-c2cc(-c3cccc(S(C)(=O)=O)c3)ccc2-n2cc(C(F)(F)F)nc2C)c(-c2ccc(OC(F)F)c(Cl)c2)o1 [Example 398]", 7.26],
  ["Cc1nc(C(F)(F)F)cn1-c1ccc(-c2cc(F)c(CO)c(S(C)(=O)=O)c2)cc1-c1nc(CCO)oc1-c1ccc(OC(F)(F)F)cc1 [Example 525]", 6.19],
  ["Cc1nc(C(F)(F)F)cn1-c1ccc(-c2cccc(S(C)(=O)=O)c2)cc1-n1nncc1Cc1cccc(OC(F)(F)F)c1 [Example 116]", 6.01],
  ["COCCc1nc(-c2cc(-c3cccc(S(C)(=O)=O)c3)ccc2-n2cc(C(F)(F)F)nc2C)c(-c2ccc(Cl)cc2Cl)o1 [Example 553]", 6.81],
  ["Cc1nc(C(F)(F)F)cn1-c1ccc(-c2cc(Cl)c(CO)c(S(C)(=O)=O)c2)cc1-n1nncc1-c1ccc(OC(F)(F)F)cc1 [Example 212]", 6.37],
  ["CCC(F)(F)c1cn(-c2ccc(-c3cc(F)c(CO)c(S(C)(=O)=O)c3)cc2-c2nc(C)oc2-c2ccc(OC(F)(F)F)cc2)c(C)n1 [Example 518]", 6.97],
  ["Cc1nc(-c2cc(-c3cccc(S(C)(=O)=O)c3)ccc2-n2cc(C(F)(F)F)nc2C)c(-c2ccc(OC(F)F)nc2)o1 [Example 384]", 7.92],
  ["Cc1cc(-c2cc(-c3cccc(S(C)(=O)=O)c3)ccc2-n2cc(C(F)(F)F)nc2C)n(-c2ccc(OC(F)F)cc2)n1 [Example 301]", 7.31],
  ["Cc1nc(-c2cc(-c3cc(F)c(CO)c(S(C)(=O)=O)c3)ccc2-n2cc(C(F)(F)F)nc2C)c(-c2ccc(C(F)(F)F)nc2)o1 [Example 568]", 6.26],
  ["Cc1nc(C(F)(F)F)c(Cl)n1-c1ccc(-c2cccc(S(C)(=O)=O)c2)cc1-n1nncc1-c1ccc(OC(F)(F)F)cc1 [Example 55]", 6.74],
  ["Cc1nc(C(F)(F)F)cn1-c1ccc(-c2cccc(S(C)(=O)=O)c2)cc1-n1nncc1-c1ccc2c(c1)OC(F)(F)O2 [Example 73]", 6.32],
  ["Cc1nc(-c2cc(-c3cccc(S(C)(=O)=O)c3)ccc2-n2cc(C(F)(F)F)nc2C)c(-c2cc(Cl)ccn2)o1 [Example 434]", 6.34],
  ["Cc1nc(-c2cc(-c3cccc(S(C)(=O)=O)c3)ccc2-n2cc(C(F)(F)F)nc2C)c(-c2ccc3c(c2)C(O)C(F)(F)O3)o1 (stereo not shown) [Example 368]", 6.33],
  ["Cc1nc(-c2cc(-c3cccc(S(C)(=O)=O)c3)ccc2-n2cc(C(F)(F)F)nc2C)c(-c2ccc(C(F)(F)F)cc2)o1 [Example 513]", 6.86],
  ["Cc1nc(C(F)(F)F)cn1-c1ccc(-c2cc(F)c(CO)c(S(C)(=O)=O)c2)cc1-c1nc(C(C)CO)oc1-c1ccc(OC(F)(F)F)cc1 (stereo not shown) [Example 554]", 6.65],
  ["Cc1nc(-c2cc(-c3cc(F)c(CO)c(S(C)(=O)=O)c3)ccc2-n2cc(C(F)(F)F)nc2C)c(-c2ccc3c(c2)OC(F)(F)O3)o1 [Example 494]", 7.33],
  ["Cc1nc(-c2ccc(Cl)cc2Cl)c(-c2cc(-c3ccc(CO)c(S(C)(=O)=O)c3)ccc2-n2cc(C(F)(F)F)nc2C)o1 [Example 614]", 7.33],
  ["Cc1nc(-c2cc(-c3cc(F)c(CO)c(S(C)(=O)=O)c3)ccc2-n2cc(C(F)(F)F)nc2C)c(-c2ccc(Cl)c(Cl)c2)o1 [Example 507]", 7.46],
  ["CCC(F)(F)c1cn(-c2ccc(-c3cccc(S(C)(=O)=O)c3)cc2-c2ocnc2-c2ccc(OC(F)(F)F)cc2)c(C)n1 [Example 364]", 6.39],
  ["Cc1nc(C(F)(F)F)cn1-c1ccc(-c2cc(F)c(CO)c(S(C)(=O)=O)c2)cc1-c1ccnn1-c1ccc(Cl)cc1 [Example 288]", 7.13],
  ["Cc1cn(-c2ccc(-c3cc(F)c(CO)c(S(C)(=O)=O)c3)cc2-n2nncc2-c2ccc(OC(F)(F)F)cc2)c(C)n1 [Example 84]", 6.07],
  ["Cc1nc(C(F)(F)F)cn1-c1ccc(-c2cccc(S(C)(=O)=O)c2)cc1-n1nncc1Cc1ccc(Cl)cc1 [Example 125]", 6.45],
  ["Cc1nc(C(F)(F)F)cn1-c1ccc(-c2cccc(S(C)(=O)=O)c2)cc1-n1nncc1-c1ccc(OC(F)(F)F)c(Cl)c1 [Example 53]", 6.76],
  ["Cc1cc(-c2oc(C)nc2-c2cc(-c3cccc(S(C)(=O)=O)c3)ccc2-n2cc(Cl)nc2C)cc(Cl)n1 [Example 468]", 6.35]
]}
